Experimental system: human androgen receptor (Homo sapiens)
Construct: expressed in transfected cells; host or cells: HEK293
Measurement notes: Reporter assay of an androgen receptor responsive sequence (luciferase, transiently transfected HEK293 cells)
Assay type: cell-based
Measurement context: 24 hours incubation, relative to activity of 100 nM DHT, read-out: AR transcriptive activity (pEC50) (converted)
# strict inequality: EC50 < 300 nM yields 1 (yes), everything else yields 0 (no)

smiles_code=Cc1sc(N(Cc2ccc(OCc3cccnc3)cc2)c2ccc(C#N)cc2)nc1C(=O)NS(C)(=O)=O experimental_system="human androgen receptor (Homo sapiens)" assigned_category="0 (no)"
smiles_code=Cc1sc(N(Cc2cnc(-c3ccccc3F)s2)c2ccc(C#N)cc2)nc1C(=O)NS(C)(=O)=O experimental_system="human androgen receptor (Homo sapiens)" assigned_category="0 (no)"
smiles_code=Cc1sc(N(CCc2ccccc2F)Cc2ccccc2)nc1C(=O)NS(C)(=O)=O experimental_system="human androgen receptor (Homo sapiens)" assigned_category="0 (no)"

Ask | Quick check: EC50 of CS(=O)(=O)NC(=O)c1nc(N(Cc2cccc(OC(F)(F)F)c2)c2ccc(C#N)cc2)sc1Br under 300 nM?
Reply | 1 (yes)

Ask | Would you kindly verify if EC50 of Cc1sc(N(Cc2ccc(C(F)(F)F)c(F)c2)c2ccc(C#N)cc2)nc1C(=O)NS(C)(=O)=O is strictly less than 300 nM?
Reply | 1 (yes)

Ask | In plain terms, does CCc1oc(N(Cc2ccc(OC(F)F)cc2)c2ccc(C#N)cc2)nc1C(=O)NS(C)(=O)=O come in under 300 nM for EC50?
Reply | 0 (no)

Ask | Given the entry Cc1sc(N(Cc2cccc(=O)[nH]2)c2ccc(C#N)cc2)nc1C(=O)NS(C)(=O)=O , would its reported EC50 be below 300 nM?
Reply | 0 (no)

Ask | Dear reviewer, please state whether Cc1sc(N(Cc2cccc(N(C)C)c2)c2ccc(C#N)cc2)nc1C(=O)NS(C)(=O)=O has EC50 strictly beneath 300 nM.
Reply | 1 (yes)

Ask | Strictly below 300 nM in EC50? Cc1sc(N(CCC2CCCCC2)Cc2ccc(Cl)cc2)nc1C(=O)NS(=O)(=O)C1CC1
Reply | 0 (no)

Ask | Find out if reported EC50 for Cc1sc(N(Cc2ccc(Br)c(Cl)c2)c2ccc(C#N)cc2)nc1C(=O)NS(C)(=O)=O is less than 300 nM
Reply | 0 (no)

----------
Listed next: entries and their corresponding EC50.
Experimental system: human androgen receptor (Homo sapiens)
Construct: expressed in transfected cells; host or cells: HEK293
Measurement notes: Reporter assay of an androgen receptor responsive sequence (luciferase, transiently transfected HEK293 cells)
Assay type: cell-based
Measurement context: 24 hours incubation, relative to activity of 100 nM DHT, read-out: AR transcriptive activity (pEC50) (converted)

smiles_code=CS(=O)(=O)NC(=O)c1nc(N(Cc2ccc(C(F)(F)F)nc2)c2ccc(C#N)cc2)sc1C1CC1 result="> 10 µM"

Ask | Give the reported value of EC50 for this record: Cc1sc(N(Cc2ccccc2)c2ccc(C#N)cc2)nc1C(=O)NS(=O)(=O)CS(C)(=O)=O
Reply | > 10 µM

Ask | Give the reported EC50 for this compound. COCCOCCCS(=O)(=O)NC(=O)c1nc(N(Cc2ccc(OC(F)(F)F)cc2)c2ccc(C#N)cc2)sc1C
Reply | > 10 µM

----------
Experimental system: human androgen receptor (Homo sapiens, UniProt P10275)
Construct: expressed in transfected cells; host or cells: HEK293
Sequence (P10275 whole entry): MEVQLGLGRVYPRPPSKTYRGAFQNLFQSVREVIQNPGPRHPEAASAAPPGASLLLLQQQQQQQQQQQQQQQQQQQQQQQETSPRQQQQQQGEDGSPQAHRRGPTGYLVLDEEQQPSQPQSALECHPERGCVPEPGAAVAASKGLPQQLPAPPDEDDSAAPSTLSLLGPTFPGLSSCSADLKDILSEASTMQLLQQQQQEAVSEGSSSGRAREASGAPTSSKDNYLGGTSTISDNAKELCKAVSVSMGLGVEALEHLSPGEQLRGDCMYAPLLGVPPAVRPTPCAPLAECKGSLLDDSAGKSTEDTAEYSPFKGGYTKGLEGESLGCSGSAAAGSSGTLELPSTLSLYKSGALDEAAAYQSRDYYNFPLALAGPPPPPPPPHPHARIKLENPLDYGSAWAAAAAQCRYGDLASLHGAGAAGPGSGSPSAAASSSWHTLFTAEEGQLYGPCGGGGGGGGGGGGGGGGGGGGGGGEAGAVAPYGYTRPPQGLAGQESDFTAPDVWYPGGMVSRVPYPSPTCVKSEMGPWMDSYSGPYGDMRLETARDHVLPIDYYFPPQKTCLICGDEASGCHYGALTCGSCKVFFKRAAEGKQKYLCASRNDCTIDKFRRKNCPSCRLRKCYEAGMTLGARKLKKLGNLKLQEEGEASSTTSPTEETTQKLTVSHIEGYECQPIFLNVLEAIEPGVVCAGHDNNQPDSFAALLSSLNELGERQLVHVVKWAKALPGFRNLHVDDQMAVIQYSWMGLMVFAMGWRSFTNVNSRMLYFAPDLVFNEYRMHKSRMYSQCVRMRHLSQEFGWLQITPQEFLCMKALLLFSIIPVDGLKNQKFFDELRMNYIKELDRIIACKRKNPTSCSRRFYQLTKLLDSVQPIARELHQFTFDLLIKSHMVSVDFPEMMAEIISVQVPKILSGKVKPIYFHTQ
Measurement notes: Reporter assay of an androgen receptor responsive sequence (luciferase, transiently transfected HEK293 cells)
Format: cell-based
Measurement context: 24 hours incubation, relative to activity of 100 nM DHT, read-out: AR transcriptive activity (pEC50) (converted)
Metric name: log10 of EC50 (log10 of the value in µM)
Please be aware that the numbers have been log10-transformed from EC50 in µM.

Below: 10 compounds and their reported log10 of EC50.
compound="Cc1sc(N(Cc2ccc(Cl)cc2)c2ccc(C(F)(F)F)nc2)nc1C(=O)NS(C)(=O)=O [Compound 470]" experimental_system="human androgen receptor (Homo sapiens, UniProt P10275)" metric_name="log10 of EC50" numeric_value=-0.80
compound="COCCCS(=O)(=O)NC(=O)c1nc(N(CCc2ccc(C#N)cc2)Cc2ccc(C(F)(F)F)nc2)oc1C [Compound 559]" experimental_system="human androgen receptor (Homo sapiens, UniProt P10275)" metric_name="log10 of EC50" numeric_value=0.90
compound="Cc1sc(N(CCc2ccc(Cl)c(Cl)c2)Cc2ccccc2)nc1C(=O)NS(C)(=O)=O [Compound 710]" experimental_system="human androgen receptor (Homo sapiens, UniProt P10275)" metric_name="log10 of EC50" numeric_value=-0.40
compound="COCCCS(=O)(=O)NC(=O)c1nc(N(Cc2ccc(C(F)(F)F)c(C#N)c2)c2ccc(C#N)cc2)sc1C [Compound 534]" experimental_system="human androgen receptor (Homo sapiens, UniProt P10275)" metric_name="log10 of EC50" numeric_value=-0.80
compound="Cc1sc(N(CCc2cccs2)Cc2ccccc2)nc1C(=O)NS(C)(=O)=O [Example 310]" experimental_system="human androgen receptor (Homo sapiens, UniProt P10275)" metric_name="log10 of EC50" numeric_value=0.40
compound="Cc1sc(N(Cc2ccccc2)c2ccc(Cl)c(Cl)c2)nc1C(=O)NS(C)(=O)=O [Compound 37]" experimental_system="human androgen receptor (Homo sapiens, UniProt P10275)" metric_name="log10 of EC50" numeric_value=0.10
compound="Cc1sc(N(CCc2cccc(F)c2)c2ccc(C#N)cc2)nc1C(=O)NS(C)(=O)=O [Compound 83]" experimental_system="human androgen receptor (Homo sapiens, UniProt P10275)" metric_name="log10 of EC50" numeric_value=0.40
compound="COc1ccc(CCN(Cc2ccccc2)c2nc(C(=O)NS(C)(=O)=O)c(C)s2)cc1 [Compound 678]" experimental_system="human androgen receptor (Homo sapiens, UniProt P10275)" metric_name="log10 of EC50" numeric_value=0.20
compound="Cc1sc(N(Cc2ccc(-c3ccc(F)cc3)nc2)c2ccc(C#N)cc2)nc1C(=O)NS(C)(=O)=O [Compound 592]" experimental_system="human androgen receptor (Homo sapiens, UniProt P10275)" metric_name="log10 of EC50" numeric_value=-0.10
compound="Cc1sc(N(CC2COc3ccccc3C2)c2ccc(C#N)cc2)nc1C(=O)NS(C)(=O)=O (stereo not drawn) [Compound 510]" experimental_system="human androgen receptor (Homo sapiens, UniProt P10275)" metric_name="log10 of EC50" numeric_value=0.10

Ask | Give the measured log10 of EC50 for CS(=O)(=O)NC(=O)c1nc(N(Cc2ccccc2)c2ccc(C#N)cc2)sc1Cl [Compound 657]
Reply | -1.30

Ask | Answer with the recorded log10 of EC50 for the compound listed here: CS(=O)(=O)NC(=O)c1nc(N(Cc2cccc(OC(F)F)c2)c2ccc(C#N)cc2)sc1Br [Example 255]
Reply | -1.10

----------
Experimental system: human androgen receptor (Homo sapiens)
Construct: expressed in transfected cells; host or cells: HEK293
Measurement notes: Reporter assay of an androgen receptor responsive sequence (luciferase, transiently transfected HEK293 cells)
Type: cell-based
Measurement context: 24 hours incubation, relative to activity of 100 nM DHT, read-out: AR transcriptive activity (pEC50) (converted)
Property: EC50; scope: individual compounds
Reply with just the number (in nM).

smiles_code=Cc1sc(N(Cc2cccc(C(F)(F)F)c2)c2ccc(C#N)cc2)nc1C(=O)NS(C)(=O)=O numeric_value=200
smiles_code=Cc1sc(N(Cc2ccc(OC(F)F)cc2F)c2ccc(C#N)cc2)nc1C(=O)NS(C)(=O)=O numeric_value=251

Ask | State its EC50: Cc1sc(N(Cc2ccc(Br)nc2)c2ccc(C#N)cc2)nc1C(=O)NS(C)(=O)=O
Reply | 158

----------
Experimental system: androgen receptor (AR-LBD) (Rattus norvegicus)
Construct: 5 μL of 2×AR-LBD/Fluoromone AL Red Complex contained in the kit; purchased Invitrogen
Sequence (P15207 651-882 limits assumed): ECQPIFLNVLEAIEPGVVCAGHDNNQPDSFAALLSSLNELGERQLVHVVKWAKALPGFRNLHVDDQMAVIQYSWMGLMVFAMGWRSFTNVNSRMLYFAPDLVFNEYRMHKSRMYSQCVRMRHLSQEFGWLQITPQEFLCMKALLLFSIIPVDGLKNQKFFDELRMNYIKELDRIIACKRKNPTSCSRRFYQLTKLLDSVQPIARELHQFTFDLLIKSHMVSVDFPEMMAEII
Measurement notes: Evaluation of androgen receptor affinity (PolarScreen Androgen Receptor Competitor Assay Kit, Red; fluorescence polarization)
Measurement context: 22° C. for 5 hours, relative to binding rate of 1 μM DHT, read-out: AR affinity (pEC50) (converted)
Values of EC50 strictly less than 100 nM map to fulfilled, and values of at least 100 nM map to not fulfilled.

smiles_code=Cc1sc(N(Cc2ccccc2)c2ccc(C#N)cc2)nc1C(=O)NS(=O)(=O)CCN1C(=O)c2ccccc2C1=O assigned_category="not fulfilled"
smiles_code=Cc1sc(N(Cc2ccccc2)c2ccc(C#N)cc2)nc1C(=O)NS(=O)(=O)CCN1CCOCC1 assigned_category="not fulfilled"
smiles_code=COC(C)(C)CCN(c1ccc(C#N)cc1)c1nc(C(=O)NS(C)(=O)=O)c(C)s1 assigned_category="not fulfilled"
smiles_code=Cc1oc(N(CCc2ccc(Cl)cc2)Cc2ccccc2)nc1C(=O)NS(C)(=O)=O assigned_category=fulfilled
smiles_code=Cc1sc(N(Cc2ccc(OCc3ccncc3)cc2)c2ccc(C#N)cc2)nc1C(=O)NS(C)(=O)=O assigned_category="not fulfilled"

Query molecule follows.
Ask | Confirm or reject: EC50 of Cc1sc(N(Cc2cccc3cccnc23)c2ccc(C#N)cc2)nc1C(=O)NS(C)(=O)=O lies strictly below 100 nM
Reply | not fulfilled
